System Name: ACK1 (Homo sapiens, UniProt Q07912)
Sequence (Q07912 whole entry): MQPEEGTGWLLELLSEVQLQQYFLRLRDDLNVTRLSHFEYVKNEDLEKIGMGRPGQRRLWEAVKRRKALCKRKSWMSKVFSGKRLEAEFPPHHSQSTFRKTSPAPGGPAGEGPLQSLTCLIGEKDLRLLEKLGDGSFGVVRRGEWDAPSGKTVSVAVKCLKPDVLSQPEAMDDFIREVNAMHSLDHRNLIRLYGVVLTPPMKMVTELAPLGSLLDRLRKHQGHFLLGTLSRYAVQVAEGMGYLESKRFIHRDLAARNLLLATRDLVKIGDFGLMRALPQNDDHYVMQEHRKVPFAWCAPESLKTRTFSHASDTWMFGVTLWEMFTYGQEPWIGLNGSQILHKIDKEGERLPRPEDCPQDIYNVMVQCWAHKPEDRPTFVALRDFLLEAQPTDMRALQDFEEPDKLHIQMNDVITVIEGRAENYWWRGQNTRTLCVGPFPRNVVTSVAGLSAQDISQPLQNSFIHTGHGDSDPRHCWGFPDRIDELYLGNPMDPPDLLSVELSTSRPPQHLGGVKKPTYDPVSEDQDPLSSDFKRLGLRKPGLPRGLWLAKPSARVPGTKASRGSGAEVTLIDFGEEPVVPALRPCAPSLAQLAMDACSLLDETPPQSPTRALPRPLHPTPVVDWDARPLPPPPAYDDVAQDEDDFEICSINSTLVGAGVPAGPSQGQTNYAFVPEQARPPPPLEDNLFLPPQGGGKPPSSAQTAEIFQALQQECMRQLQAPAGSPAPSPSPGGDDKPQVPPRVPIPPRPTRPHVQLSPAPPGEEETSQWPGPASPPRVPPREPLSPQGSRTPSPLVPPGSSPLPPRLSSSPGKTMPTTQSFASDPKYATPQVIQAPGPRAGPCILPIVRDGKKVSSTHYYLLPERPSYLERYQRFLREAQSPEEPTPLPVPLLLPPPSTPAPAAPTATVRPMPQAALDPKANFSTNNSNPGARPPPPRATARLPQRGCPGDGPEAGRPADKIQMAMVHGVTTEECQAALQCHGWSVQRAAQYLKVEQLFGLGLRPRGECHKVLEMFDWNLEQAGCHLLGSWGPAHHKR
Assay: ACK1 ELISA: phosphorylation of AKT-derived peptide
Format: biochemical
Condition Info: 10 μM; Table 2, library 9; read-out: % Inhibition @ 10 μM (ELISA)
Measured Quantity: inhibition at 10 µM (%)
The answer is to be given in %; state only the numeric part.

The recorded inhibition at 10 µM for O=C(Nc1c(F)cccc1Cl)c1cnc(Nc2ccc(N3CCC(C(=O)O)CC3)cc2)nc1NCC1CCCO1 (stereo not shown) [Compound 9s] is 98

The recorded inhibition at 10 µM for CN1CCN(c2ccc(Nc3ncc(Cl)c(NCC4CCCO4)n3)cc2)CC1 (stereo not shown) [Compound 9b] is 90.5

The recorded inhibition at 10 µM for CN1CCN(c2ccc(Nc3ncc(Br)c(NCC4CCCO4)n3)cc2)CC1 (stereo not shown) [Compound 18] is 67

The recorded inhibition at 10 µM for O=C(O)C1CCN(c2ccc(Nc3ncc(Cl)c(NCC4CCCO4)n3)cc2)CC1 (stereo not shown) [Compound 9e] is 93

The recorded inhibition at 10 µM for Clc1cnc(Nc2ccc(C3CCNCC3)cc2)nc1NCC1CCCO1 (stereo not shown) [Compound 9f] is 79.5

The recorded inhibition at 10 µM for O=C(Nc1c(F)cccc1Cl)c1cnc(Nc2ccc(N3CCOCC3)cc2)nc1NCC1CCCO1 (stereo not shown) [Compound 9n] is 82

The recorded inhibition at 10 µM for Brc1cnc(Nc2ccc(N3CCOCC3)cc2)nc1NCC1CCCO1 (stereo not shown) [Compound 9h] is 89

The recorded inhibition at 10 µM for Brc1cnc(Nc2ccc(N3CCNCC3)cc2)nc1NCC1CCCO1 (stereo not shown) [Compound 15] is 65

The recorded inhibition at 10 µM for Brc1cnc(Nc2ccc(C3CCNCC3)cc2)nc1NCC1CCCO1 (stereo not shown) [Compound 9k] is 84.5

The recorded inhibition at 10 µM for Clc1cnc(Nc2ccc(N3CCNCC3)cc2)nc1NCC1CCCO1 (stereo not shown) [Compound 14] is 66

* * *

Task for the reader: assign each of the following compounds its reported melting point.

The recorded melting point for O=C(O)CCCc1ccc(Nc2ncc(Cl)c(NCC3CCCO3)n2)cc1 (centres unmarked) is 180 °C (dec.)

The recorded melting point for CC(C)S(=O)(=O)c1ccccc1Nc1nc(Nc2ccc(N3CCOCC3)cc2)ncc1C(=O)Nc1c(F)cccc1Cl is 220 °C (dec.)

The recorded melting point for Cl.O=C(O)CCCc1ccc(Nc2ncc(Cl)c(NC[C@@H]3CCCO3)n2)cc1 is 180 °C (dec.)

The recorded melting point for CCSc1ccccc1Nc1nc(Cl)ncc1C(=O)Nc1c(F)cccc1Cl is 205 to 208 °C

The recorded melting point for Cl.Oc1ccc(Nc2ncc(Br)c(NCC3CCCO3)n2)cc1Cl (centres unmarked) is 193 °C (dec.)

* * *

System Name: ACK1 (Homo sapiens)
Assay: 32P Hotspot assay (Reaction Biology), ACK1 IC50
Assay type: biochemical
Condition Info: Table 3; 10-dose, 3-fold dilution from 10 μM; 10 μM ATP; read-out: Compound IC50* (M): ACK1
Experimental: 8 compounds were tested against […], ACK1, Src and ALK in various combinations. […] Reactions were carried out at 10 μM ATP.
Where a name gives a salt, the structure may show the parent alone.
Measured Quantity: IC50 (M)
The answer is to be given in M; state only the numeric part.

The recorded IC50 for CN1CCN(c2ccc(Nc3ncc(C(=O)Nc4c(F)cccc4Cl)c(NCC4CCCO4)n3)cc2)CC1 (stereo not drawn) is 4.83e-08

The recorded IC50 for Cl.Oc1ccc(Nc2ncc(Br)c(NCC3CCCO3)n2)cc1 (stereo not drawn) [SK1-028, hydrochloride] is 1.64e-07

The recorded IC50 for CN1CCN(c2ccc(Nc3ncc(Cl)c(NC[C@H]4CCCO4)n3)cc2)CC1 is 6.05e-08

The recorded IC50 for Oc1ccc(Nc2ncc(Cl)c(NCC3CCCO3)n2)cc1 (stereo not drawn) is 1.63e-07

The recorded IC50 for O=C(O)CCC(=O)N1CCN(c2ccc(Nc3ncc(C(=O)Nc4c(F)cccc4Cl)c(NCC4CCCO4)n3)cc2)CC1 (stereo not drawn) is 2.84e-08

The recorded IC50 for Brc1cnc(Nc2ccc(N3CCNCC3)cc2)nc1NCC1CCCO1 (stereo not drawn) [YL9-167, TFA salt] is 9.47e-08
